# Tested on: Hepatitis C virus
# protocol notes: Antiviral activity against Hepatitis C virus infected in human Huh5-2 cells assessed as […] by viral RNA (luciferase) assay
# Assay type: functional, organism-based, Hepacivirus hominis
# conditions: Huh-5-2
Measured EC50 of individual entries
observation type: EC50 (µM)

smi | observation type | units | comparison sign | measured result
COc1cccc2cc(CSc3nc4cncnc4n3[C@@H]3O[C@H](CO)[C@@H]4OC(C)(C)O[C@@H]43)c(=O)oc12 | EC50 | µM | = | 1.6
COc1cccc2cc(CSc3nc4cncnc4n3[C@@H]3O[C@H](COC(C)=O)[C@@H](OC(C)=O)[C@H]3OC(C)=O)c(=O)oc12 | EC50 | µM | = | 2.3
CC(=O)OC[C@H]1O[C@@H](n2c(=S)[nH]c3cncnc32)[C@H](OC(C)=O)[C@@H]1OC(C)=O | EC50 | µM | > | 122
O=c1oc2c(Br)cc(Br)cc2cc1CSc1nc2cncnc2n1[C@@H]1O[C@H](CO)[C@@H](O)[C@H]1O | EC50 | µM | = | 5.9
CC(=O)OC[C@H]1O[C@@H](n2c(SCc3cc4ccccc4oc3=O)nc3cncnc32)[C@H](O)[C@@H]1O | EC50 | µM | > | 8.9
CC(=O)OC[C@H]1O[C@@H](n2c(SCc3cc4ccccc4oc3=O)nc3cncnc32)[C@H](OC(C)=O)[C@@H]1OC(C)=O | EC50 | µM | = | 6.6
COc1cccc2cc(CSc3nc4cncnc4n3[C@@H]3O[C@H](CO)[C@@H](O)[C@H]3O)c(=O)oc12 | EC50 | µM | = | 9.5
CC(=O)OC[C@H]1O[C@@H](n2c(SCc3cc4cc(Br)ccc4oc3=O)nc3cncnc32)[C@H](O)[C@@H]1O | EC50 | µM | = | 8.3
O=c1oc2ccccc2cc1CSc1nc2cncnc2n1[C@@H]1O[C@H](CO)[C@@H](O)[C@H]1O | EC50 | µM | = | 5.5
CC(=O)OC[C@H]1O[C@@H](n2c(SCc3cc4cc(Br)cc(Br)c4oc3=O)nc3cncnc32)[C@H](O)[C@@H]1O | EC50 | µM | = | 6.8
OC[C@H]1O[C@@H](n2c(S)nc3cncnc32)[C@H](O)[C@@H]1O | EC50 | µM | > | 176
O=c1oc2ccc(Cl)cc2cc1CSc1nc2cncnc2n1[C@@H]1O[C@H](CO)[C@@H](O)[C@H]1O | EC50 | µM | = | 4.3
CC1(C)O[C@@H]2[C@H](O1)[C@H](n1c(SCc3cc4cc(Br)ccc4oc3=O)nc3cncnc31)O[C@@H]2CO | EC50 | µM | = | 2.1
O=c1oc2ccc(F)cc2cc1CSc1nc2cncnc2n1[C@@H]1O[C@H](CO)[C@@H](O)[C@H]1O | EC50 | µM | = | 7.4
CC(=O)OC[C@H]1O[C@@H](n2c(SCc3cc4cc(Br)ccc4oc3=O)nc3cncnc32)[C@H](OC(C)=O)[C@@H]1OC(C)=O | EC50 | µM | = | 4.9
CC(=O)OC[C@H]1O[C@@H](n2c(SCc3cc4cc(F)ccc4oc3=O)nc3cncnc32)[C@H](O)[C@@H]1O | EC50 | µM | = | 3.8
COc1cccc2cc(CSc3nc4c(N)ncnc4n3[C@@H]3O[C@H](CO)[C@@H](O)[C@H]3O)c(=O)oc12 | EC50 | µM | = | 43
CC1(C)O[C@@H]2[C@H](O1)[C@H](n1c(SCc3cc4ccccc4oc3=O)nc3cncnc31)O[C@@H]2CO | EC50 | µM | = | 2.8
Nc1ncnc2c1nc(SCc1cc3ccccc3oc1=O)n2[C@@H]1O[C@H](CO)[C@@H](O)[C@H]1O | EC50 | µM | = | 28
Nc1ncnc2c1nc(SCc1cc3cc(Br)cc(Br)c3oc1=O)n2[C@@H]1O[C@H](CO)[C@@H](O)[C@H]1O | EC50 | µM | = | 26
CC(=O)OC[C@H]1O[C@@H](n2c(SCc3cc4cc(F)ccc4oc3=O)nc3cncnc32)[C@H](OC(C)=O)[C@@H]1OC(C)=O | EC50 | µM | = | 6.1
Nc1ncnc2c1nc(SCc1cc3cc(Br)ccc3oc1=O)n2[C@@H]1O[C@H](CO)[C@@H](O)[C@H]1O | EC50 | µM | = | 27
CC(=O)OC[C@H]1O[C@@H](n2c(=S)n([C@@H]3O[C@H](COC(C)=O)[C@@H](OC(C)=O)[C@H]3OC(C)=O)c3ncncc32)[C@H](OC(C)=O)[C@@H]1OC(C)=O | EC50 | µM | = | 66
CC(=O)OC[C@H]1O[C@@H](n2c(SCc3cc4cc(C)ccc4oc3=O)nc3cncnc32)[C@H](OC(C)=O)[C@@H]1OC(C)=O | EC50 | µM | = | 7.7
CC(=O)OC[C@H]1O[C@@H](n2c(SCc3cc4cc(C)ccc4oc3=O)nc3cncnc32)[C@H](O)[C@@H]1O | EC50 | µM | = | 4.6
COc1cccc2cc(CSc3nc4cncnc4n3[C@@H]3O[C@H](COC(C)=O)[C@@H](O)[C@H]3O)c(=O)oc12 | EC50 | µM | = | 5.8
CC(=O)OC[C@H]1O[C@@H](n2c(SCc3cc4cc(Br)cc(Br)c4oc3=O)nc3cncnc32)[C@H](OC(C)=O)[C@@H]1OC(C)=O | EC50 | µM | = | 4.9
Cc1ccc2oc(=O)c(CSc3nc4cncnc4n3[C@@H]3O[C@H](CO)[C@@H](O)[C@H]3O)cc2c1 | EC50 | µM | = | 9.2
CC(=O)OC[C@H]1O[C@@H](n2c(SCc3cc4cc(Cl)ccc4oc3=O)nc3cncnc32)[C@H](OC(C)=O)[C@@H]1OC(C)=O | EC50 | µM | = | 3.2
